Data provenance: paper PMC11904993

Test Target: human Brd4 BD1 (Homo sapiens)
Measurement Protocol: HTRF assay, inhibition of H4ac4 peptide binding
Condition Info: Table S4; means ± SD, n=3; read-out: IC50 hBrd4 BD1
pIC50: −log10 of the molar value.

Molecule	Test Target	pIC50
Cn1nccc1C(=O)NCc1ccc(-c2nc(-c3cccs3)no2)s1 [Compound 63]	human Brd4 BD1 (Homo sapiens)	4.59

###

Test system: C. glabrata strains expressing WT and mutant Bdf1
Measurement Protocol: Growth inhibition in liquid media, C. glabrata lab strains
Condition Info: Nakaseomyces glabratus, read-out: pEC50 growth inhibition, Fig 2C (converted); strain BD2 Y-F; single experiments Exp1-3
EC50: recorded values
Property Label: EC50 (µM)

Compound	Test Target	Prefix Operator	Reported Value
COc1ccc(-c2nnc(C)c(NCc3ccccc3)n2)cc1 [Compound 24g]	C. glabrata strains expressing WT and mutant Bdf1	=	43.2
Cc1cccc(-c2nnc(C)c(NCc3ccco3)n2)c1 [Compound 24b]	C. glabrata strains expressing WT and mutant Bdf1	=	74.8
Cc1ccc(-c2nnc(C)c(NCc3ccc(C)o3)n2)cc1 [Compound 24c]	C. glabrata strains expressing WT and mutant Bdf1	=	36.4
COC(=O)c1ccc(CNc2nc(-c3ccc(C)cc3)nnc2C)cc1 [Compound 24k]	C. glabrata strains expressing WT and mutant Bdf1	>	251
COc1ccc(CNc2nc(-c3ccc(C)cc3)nnc2C)cc1OC [Compound 24i]	C. glabrata strains expressing WT and mutant Bdf1	>	251
Cc1ccc(-c2nnc(C)c(NCc3ccccc3)n2)cc1 [Compound 24m]	C. glabrata strains expressing WT and mutant Bdf1	>	251
Cc1cccc(-c2nnc(C)c(NCc3ccc(C)o3)n2)c1 [Compound 24d]	C. glabrata strains expressing WT and mutant Bdf1	=	44.7
COC(=O)c1cccc(CNc2nc(-c3ccc(C)cc3)nnc2C)c1 [Compound 24l]	C. glabrata strains expressing WT and mutant Bdf1	>	251
COc1ccc(CNc2nc(-c3cccc(C)c3)nnc2C)cc1OC [Compound 24j]	C. glabrata strains expressing WT and mutant Bdf1	>	251
COc1cccc(CNc2nc(-c3ccc(C)cc3)nnc2C)c1 [Compound 24f]	C. glabrata strains expressing WT and mutant Bdf1	=	68.2

###

System: C. albicans
Measurement Protocol: Growth of reference and clinical strains in liquid media
Assay type: cell-based
Condition Info: Candida albicans, read-out: EC50 growth inhibition, Table S5; C. albicans DSY296, azole-resistant, Erg11 (G129A, G464S, G450E), Tac1 (N977D)

Molecule	EC50, µM
CC(=O)N1c2ccc(-c3ccc(C(=O)O)cc3)cc2C(Nc2ccc(Cl)cc2)CC1C (stereo not shown)	7.36

###

Tested on: C. glabrata expressing humanized Bdf1 (Brd4 BDs)
Measurement Protocol: Growth inhibition in liquid media, humanized C. glabrata strains
Condition Info: Nakaseomyces glabratus, read-out: EC50 (μM) growth inhibition, Fig 3F; strain bdf1-hBD2-FLAG
Property Label: EC50

Molecule	Property Label	Reported Value
CC(=O)N1c2ccc(-c3ccc(C(=O)O)cc3)cc2C(Nc2ccc(Cl)cc2)CC1C (stereo not shown)	EC50	0.019 µM

###

System: C. glabrata strains expressing WT and mutant Bdf1
Measurement Protocol: Growth inhibition in liquid media, C. glabrata lab strains
Condition Info: Nakaseomyces glabratus, read-out: EC50 (μM) growth inhibition, strain bdf1-Y166F (active BD: BD2)

Molecule	EC50 / µM
CC(=O)N1c2ccc(-c3ccc(C(=O)O)cc3)cc2C(Nc2ccc(Cl)cc2)CC1C (centres unmarked) [I-BET726]	1.98

###

Test Target: CgBdf1 BD2 (Candida glabrata)
Sequence (Q6FWV7 entry or part of it): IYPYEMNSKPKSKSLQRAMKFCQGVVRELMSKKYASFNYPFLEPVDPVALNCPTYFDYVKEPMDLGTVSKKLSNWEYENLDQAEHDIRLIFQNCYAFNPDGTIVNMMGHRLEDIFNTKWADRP
Measurement Protocol: biochemical
Assay type: binding, C. glabrata
Condition Info: CgBD2; individual experiments Exp1-3; Table S4; read-out: IC50
pIC50: −log10 of the molar value.

Compound Smiles	Test Target	pIC50
Cn1nccc1C(=O)NCc1ccc(-c2nc(-c3cccs3)no2)s1	CgBdf1 BD2 (Candida glabrata)	< 4.70

###

System: C. glabrata
Measurement Protocol: Growth of reference and clinical strains in liquid media
Type: cell-based
Condition Info: Nakaseomyces glabratus, read-out: EC50 growth inhibition, Table S5; C. glabrata HAB1, azole-resistant, Pdr1 (T370I)
pEC50: −log10 of the molar value.
Property Label: pEC50

Compound	Test Target	Reported Value
CC(=O)N1c2ccc(-c3ccc(C(=O)O)cc3)cc2C(Nc2ccc(Cl)cc2)CC1C (stereo not shown) [I-BET726]	C. glabrata	5.78
